# experimental_target: human PCSK9 / human LDLR EGFa domain interaction (Homo sapiens (Human), UniProt Q8NBP7)
# Sequence (Q8NBP7 153-692): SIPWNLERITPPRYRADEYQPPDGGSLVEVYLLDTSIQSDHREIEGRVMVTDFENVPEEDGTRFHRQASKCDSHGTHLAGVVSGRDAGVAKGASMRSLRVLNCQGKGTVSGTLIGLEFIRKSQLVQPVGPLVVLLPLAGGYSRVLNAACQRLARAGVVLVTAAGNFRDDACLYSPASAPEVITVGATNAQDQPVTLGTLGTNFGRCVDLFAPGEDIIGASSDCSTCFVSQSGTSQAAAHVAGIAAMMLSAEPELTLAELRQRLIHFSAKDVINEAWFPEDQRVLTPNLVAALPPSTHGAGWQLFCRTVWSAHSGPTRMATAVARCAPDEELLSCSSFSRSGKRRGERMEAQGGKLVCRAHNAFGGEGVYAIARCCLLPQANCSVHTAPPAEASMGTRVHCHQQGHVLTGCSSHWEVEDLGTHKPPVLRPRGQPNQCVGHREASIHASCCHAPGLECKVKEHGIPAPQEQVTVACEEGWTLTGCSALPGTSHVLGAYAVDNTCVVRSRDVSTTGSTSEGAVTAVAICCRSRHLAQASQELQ
# Sequence (Q8NBP7 31-152 partner): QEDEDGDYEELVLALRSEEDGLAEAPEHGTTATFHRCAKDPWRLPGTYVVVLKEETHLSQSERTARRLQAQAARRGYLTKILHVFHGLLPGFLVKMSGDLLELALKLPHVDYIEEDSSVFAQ
# protocol_summary: TR-FRET assay of inhibition of the PCSK9-LDLR protein-protein interaction
# Assay type: binding
# details: TR-FRET, 20 nM human PCSK9, 20 nM human LDLR EGFa domain, 2 hours room temperature; read-out: IC50
Starred links: 1 amine or outer side, 2 acyl side, 3 side chain; linkers in the order of their positions; H or OH if unused. Positions of bridges follow the written chain, without caps; N, C: chain ends. Non-standard residues stand in square brackets, D forms with d. Residues, ends and D or L forms follow the SMILES beside them. Pro(cis-4-Ph) = O=C(O)[C@@H]1C[C@H](c2ccccc2)CN1; Trp(5-F) = N[C@@H](Cc1c[nH]c2ccc(F)cc12)C(=O)O; NMePhe(4-F) = CN[C@@H](Cc1ccc(F)cc1)C(=O)O; mXylylene = c1cc(C[*:1])cc(C[*:2])c1; NMeY = CN[C@@H](Cc1ccc(O)cc1)C(=O)O; NMeL = CN[C@@H](CC(C)C)C(=O)O; αMeP = C[C@@]1(C(=O)O)CCCN1; Orn = NCCC[C@H](N)C(=O)O; Nva = CCC[C@H](N)C(=O)O; Mpa = O=C(O)CCS
measured_attribute: IC50

Field: example entries. Status: answers known.
# molecule, experimental_target, measured_attribute, endpoint_result
rows = [
    ("COc1ccc(C[C@@H]2NC(=O)CCSCc3cccc(c3)CSC[C@@H](C(N)=O)NC(=O)[C@]3(C)CCCN3C(=O)[C@H](Cc3ccc(OC)cc3)NC(=O)[C@H]([C@@H](C)OC)NC(=O)[C@H](CC(C)C)N(C)C(=O)[C@H](Cc3ccc(OC)cc3)NC(=O)[C@H](Cc3ccc(OC)cc3)N(C)C(=O)[C@@H](CC(C)C)NC2=O)cc1 [Compound 036] ([Mpa]Y(Me)[dL][NMeY](Me)Y(Me)[NMeL]T(Me)Y(Me)[αMeP]C-NH2; linker 1-10 via mXylylene)", "human PCSK9 / human LDLR EGFa domain interaction (Homo sapiens (Human), UniProt Q8NBP7)", "IC50", "0.1 to 100 nM"),
    ("NCCCC[C@@H]1NC(=O)CCSCc2cccc(c2)CSC[C@@H](C(N)=O)NC(=O)[C@@H]2C[C@H](c3ccccc3)CN2C(=O)[C@H](Cc2ccc(O)cc2)NC(=O)[C@H](Cc2cnc[nH]2)NC(=O)[C@H](CC(=O)O)NC(=O)[C@H](Cc2c[nH]c3ccc(F)cc23)NC(=O)[C@H](Cc2c[nH]c3ccc(F)cc23)NC(=O)CNC1=O [Compound 329] ([Mpa]KG[Trp(5-F)][Trp(5-F)]DHY[Pro(cis-4-Ph)]C-NH2; linker 1-10 via mXylylene)", "human PCSK9 / human LDLR EGFa domain interaction (Homo sapiens (Human), UniProt Q8NBP7)", "IC50", "100 to 1000 nM"),
    ("COc1ccc(C[C@@H]2NC(=O)[C@@H]3CCCCC(=O)N[C@H]4C[C@@H](C(=O)N3)N(C4)C(=O)[C@H](Cc3c[nH]c4ccc(F)cc34)NC(=O)[C@H](Cc3c[nH]c4ccc(F)cc34)NC(=O)[C@@H](C)NC(=O)[C@H](CCCN=[N+]=[N-])NC(=O)CCSCc3cccc(c3)CCSCNC(=O)[C@]3(C)CCCN3C2=O)cc1 [Compound 520]", "human PCSK9 / human LDLR EGFa domain interaction (Homo sapiens (Human), UniProt Q8NBP7)", "IC50", "0.1 to 100 nM"),
    ("CC(=O)N[C@H]1CCC(=O)NCCC[C@@H](C(N)=O)NC(=O)[C@@H]2CCCN2C(=O)[C@H](Cc2ccc(O)cc2)NC(=O)[C@H](Cc2c[nH]cn2)NC(=O)[C@H](CC(=O)O)NC(=O)[C@H](Cc2c[nH]c3ccc(F)cc23)NC(=O)[C@H](Cc2c[nH]c3ccc(F)cc23)NC(=O)CNC(=O)[C@H](CCCCN)NC1=O [Compound 179] (Ac-EKG[Trp(5-F)][Trp(5-F)]DHYP[Orn]-NH2; lactam 1-10)", "human PCSK9 / human LDLR EGFa domain interaction (Homo sapiens (Human), UniProt Q8NBP7)", "IC50", "1000 to 12100 nM"),
]

Here's the next entry for you.
Incoming: What value of IC50 has been recorded for this entry: CCC[C@H](NC(C)=O)C(=O)N[C@H](Cc1c[nH]cn1)C(=O)N(C)[C@@H](Cc1ccc(F)cc1)C(=O)N[C@H]1CSCc2cccc(c2)CSC[C@@H](C(N)=O)NC(=O)[C@@H]2CCCN2C(=O)[C@H](Cc2ccc(O)cc2)NC(=O)[C@H](Cc2c[nH]cn2)NC(=O)[C@H](CC(=O)O)NC(=O)[C@H](Cc2c[nH]c3ccc(F)cc23)NC(=O)[C@H](Cc2c[nH]c3ccc(F)cc23)NC(=O)CNC(=O)[C@H](CCCCN)NC1=O [Compound 144] (Ac-[Nva][dH][NMePhe(4-F)]CKG[Trp(5-F)][Trp(5-F)]DHYPC-NH2; linker 4-13 via mXylylene)
Outgoing: 1000 to 12100 nM
